Entries annotated with measured TGI
Tested on: K-562 leukemia
method.summary: NCI tumour cell line growth inhibition, 48 h
quantity: TGI (µM)

# compound, tgt, relation.qualifier, value.reported
data = [
    ("Cc1cc(N=Cc2c(CO)cnc(C)c2O)c(N=Cc2c(CO)cnc(C)c2O)cc1C", "K-562 leukemia", ">", 100),
    ("C[C@]12CC[C@H]3[C@@H](CC[C@]4(O)C[C@@H](O[C@@H]5O[C@H](CO)[C@@H](O[C@@H]6OC[C@@H](O)[C@H](O)[C@H]6O)[C@H](O)[C@H]5O)CC[C@]34C=O)[C@@]1(O)CC[C@@H]2C1=CC(=O)OC1", "K-562 leukemia", "=", 10.2),
    ("Nc1n[nH]c2ccc([C@@H]3Nc4ccc5cn[nH]c5c4[C@H]4C5CCC(C5)[C@@H]34)cc12 (stereo not given in full)", "K-562 leukemia", ">", 100),
    ("COc1cc2c(cc1-c1coc3cc(O)ccc3c1=O)OCO2", "K-562 leukemia", ">", 100),
    ("NC1NCCC(=O)N1CCc1c[nH]c2ccccc12 (stereo not given)", "K-562 leukemia", "=", 51),
]

---

System: CCRF-CEM leukemia
method.summary: NCI tumour cell line growth inhibition, 48 h
quantity: TGI

# compound, value.reported
data = [
    ("CC/C(=C(/c1ccc(OCCN(C)C)cc1)c1ccc(OC(=O)CCCCCCCCC(=O)c2c(C)[nH]c(/C=C3\\N=C(c4ccc[nH]4)C=C3OC)c2C)cc1)c1ccccc1", "> 100 µM"),
    ("CN(C)NC1=NS(=O)(=O)c2cc3c(=O)n(C)[nH]c3cc2S1", "> 10 µM"),
    ("Nc1n[nH]c2ccc([C@@H]3Nc4ccc5cn[nH]c5c4[C@H]4C5CCC(C5)[C@@H]34)cc12 (some centres undefined)", "> 100 µM"),
    ("COc1cc2c(cc1[N+](=O)[O-])C(=O)C(Br)(Br)CCC2", "3.35 µM"),
]

---

Tested on: NCI/ADR-RES ovarian
method.summary: NCI tumour cell line growth inhibition, 48 h
quantity: log10 TGI (log10 of the value in µM)

# molecule, log10 TGI
measured = [
    ("CC(=O)ON=C1C=CC(=C(C#N)c2ccccc2)C=C1", 0.62),
    ("c1ccc(CC(Nc2cccnc2)c2ccccc2)cc1 (centres undefined)", 1.83),
    ("CN(C)CCCCNc1ccc(NCCCCN(C)C)c2c1C(=O)c1c(O)ccc(O)c1C2=O", 0.49),
    ("CC(C)C(=O)/C=C/c1c(Cl)cccc1Cl", 0.97),
    ("COc1ncc(-c2ccc3nccc(C#CCCCCC(=O)NO)c3c2)cc1NS(=O)(=O)c1ccc(F)cc1F", 1.48),
    ("Cc1cc(=O)oc2c(C)c3oc(CBr)cc3cc12", 1.76),
]

---

Tested on: NCI-H460 lung
method.summary: NCI tumour cell line growth inhibition, 48 h
Entries annotated with measured log10 of TGI
quantity: log10 of TGI (log10 of the value in µM)

# molecule, value.reported
measured = [
    ("COc1ccc2nc3cc(Cl)ccc3c(NCCCCCC(=O)NC(COc3ccc4ccc5cccnc5c4n3)COc3ccc4ccc5cccnc5c4n3)c2c1", 1.28),
    ("C#CCn1c(=O)ccn(/C(=C/C(=O)OCC)C(=O)OCC)c1=O", 1.01),
    ("Nc1cc(N)c2nc(NCCc3ccc(Cl)c(Cl)c3)cnc2c1", 1.54),
    ("CC[As](CC)SCC1OC(OC(C)=O)C(OC(C)=O)C(OC(C)=O)C1OC(C)=O (configuration not stated)", 1.50),
    ("CCN(CC)CCSc1c(C(C)=O)c(=O)n(-c2ccccc2)c(=S)n1-c1ccccc1", 1.70),
    ("OC(Cc1cc(CC(O)(C(F)(F)F)C(F)(F)F)nc(CC(O)(C(F)(F)F)C(F)(F)F)c1)(C(F)(F)F)C(F)(F)F", 0.26),
    ("Nc1ncnc2c1ccn2-c1cccc(NC(=O)c2ccc(N3CCOCC3)c(C(F)(F)F)c2)c1", 0.97),
    ("CC(C)C(=O)/C=C/c1c(Cl)cccc1Cl", 0.75),
    ("Cc1cccc(N=N/C(=N\\NC(=O)c2cc(Cl)ccc2O)c2ccc(N(CCC#N)CCC#N)cc2C)c1", 1.90),
    ("COc1ncc(-c2ccc3nccc(C#CCCCCC(=O)NO)c3c2)cc1NS(=O)(=O)c1ccc(F)cc1F", 1.05),
    ("CN(C)CCCCNc1ccc(NCCCCN(C)C)c2c1C(=O)c1c(O)ccc(O)c1C2=O", 0.47),
]

---

Entries annotated with measured TGI
System: CCRF-CEM leukemia
method.summary: NCI tumour cell line growth inhibition, 48 h
quantity: TGI

# compound, tgt, value.reported
records = [
    ("NC(CSCSCC(N)C(=O)O)C(=O)O (configuration not stated)", "CCRF-CEM leukemia", "> 71.2 µM"),
    ("NS(=O)(=O)c1ccc(NC(=O)c2ccc3nc4ccccc4c(Nc4ccc(S(N)(=O)=O)cc4)c3c2)cc1", "CCRF-CEM leukemia", "> 100 µM"),
    ("Cn1c(=O)c(Oc2ccc(F)cc2F)cc2cnc(NCC(C)(C)O)nc21", "CCRF-CEM leukemia", "> 25 µM"),
    ("[O-][N+]1=C2CCC/C(=N/O)C2(O)C2CCCCC21N1CCOCC1 (configuration not stated)", "CCRF-CEM leukemia", "> 100 µM"),
    ("Cc1cc(Cl)cc2c1NC(=O)C2(O)C(C(=O)c1ccccc1)c1ccccc1 (configuration not stated)", "CCRF-CEM leukemia", "81.5 µM"),
    ("O=c1oc2ccccc2n1P(=O)(Oc1ccc(Cl)cc1)n1c(=O)oc2ccccc21", "CCRF-CEM leukemia", "> 100 µM"),
    ("C=C(C)CCC(O)[C@](C)(O)[C@H]1[C@H](O)C[C@@]2(C)[C@@H]3CCc4c(cc(OC5OC(CO)C(O)C(O)C5O)c(O)c4C)C3(C)C(=O)C[C@]12C (some centres not stated)", "CCRF-CEM leukemia", "> 100 µM"),
    ("C[C@]12CC[C@H]3[C@@H](CC[C@]4(O)C[C@@H](O[C@@H]5O[C@H](CO)[C@@H](O[C@@H]6OC[C@@H](O)[C@H](O)[C@H]6O)[C@H](O)[C@H]5O)CC[C@]34C=O)[C@@]1(O)CC[C@@H]2C1=CC(=O)OC1", "CCRF-CEM leukemia", "5.24 µM"),
    ("COc1ccc(CNc2nc3cc(C(F)(F)F)ccc3nc2C(=O)O)cc1", "CCRF-CEM leukemia", "> 100 µM"),
    ("O=C(CCCn1ccnc1[N+](=O)[O-])NCCn1cnc([N+](=O)[O-])n1", "CCRF-CEM leukemia", "> 100 µM"),
    ("O=c1n(CC2CS2)c2ccccc2n1CC1CS1 (configuration not stated)", "CCRF-CEM leukemia", "79.7 µM"),
    ("Cc1cc(C)c(/C=N/NS(=O)(=O)c2ccccc2)c(C)c1", "CCRF-CEM leukemia", "> 100 µM"),
]

---

Tested on: KM12 colon
method.summary: NCI tumour cell line growth inhibition, 48 h; in the data active = GI50 below about 0.43 µM; inactive = the rest
Labels: TRUE (active), FALSE (inactive)

# compound, category
records = [
    ("COc1cc(N2CCC(N)CC2)ccc1Nc1ncc(Cl)c(-c2c[nH]c3ccccc23)n1", "TRUE"),
    ("CC[C@@H](C)/C=C(C)/C=C/C(=O)c1c(O)c(-c2ccc(O)cc2)cn(OC2CC(=O)CCC(C)OC(=O)CC2O)c1=O (stereo partly specified)", "FALSE"),
    ("CC/C(=C(/c1ccc(OCCN(C)C)cc1)c1ccc(OC(=O)CCCCCCCCC(=O)c2c(C)[nH]c(/C=C3\\N=C(c4ccc[nH]4)C=C3OC)c2C)cc1)c1ccccc1", "FALSE"),
    ("CCC(C)C1NC(=O)C(NC(=O)C(CC(C)C)N(C)C(=O)[C@@H]2CC(O)CN2C(=O)[C@H](C)O)C(C)OC(=O)[C@H](Cc2ccc(OC)cc2)N(C)C(=O)[C@@H]2CCCN2C(=O)[C@H](CC(C)C)NC(=O)C(C)C(=O)[C@H](C(C)C)OC(=O)CC1O (stereo partly specified)", "TRUE"),
    ("Nc1ncnc2c1ccn2-c1cccc(NC(=O)c2ccc(N3CCOCC3)c(C(F)(F)F)c2)c1", "FALSE"),
    ("CN(C)C1CN(C(=O)c2cc(-c3ccc4ncnc(N5CCc6cc(F)c(Cl)cc65)c4c3)cnc2N)C1", "FALSE"),
    ("Fc1ccc(Nc2nc3nonc3nc2Nc2ccc(I)cc2)cc1", "TRUE"),
    ("COCCn1c2c([n+](Cc3cnccn3)c1C)C(=O)c1ccccc1C2=O", "TRUE"),
    ("O=C(NN1C(=O)CSC1c1c(Cl)cccc1Cl)C(O)c1ccccc1 (stereo unspecified)", "FALSE"),
    ("O=C(CN1CCN(C(=O)c2ccco2)CC1)Nc1ccc(Cl)cc1C(=O)c1ccccc1Cl", "FALSE"),
    ("CC(=O)ON=C1C=CC(=C(C#N)c2ccccc2)C=C1", "TRUE"),
    ("O=C(N/N=C/c1ccncc1)c1ccc(F)cc1", "FALSE"),
    ("C#CCNC(=O)CC[C@@H](C)[C@H]1CC[C@H]2[C@@H]3CC[C@@H]4CC(=O)CC[C@]4(C)[C@H]3CC[C@]12C", "FALSE"),
    ("O=C1OCC2=C1C(c1cccc(Cl)c1)c1cc3c(cc1N2CCO)CCC3 (stereo unspecified)", "TRUE"),
    ("COC(=O)c1c2c(c(C)[n+]([O-])c1C)C(=O)C(NCc1ccc(O)cc1)=CC2=O", "FALSE"),
    ("CCOc1ccc2c(c1)C(=O)c1c-2n(CCCN=[N+]=[N-])c(=O)c2cc([N+](=O)[O-])ccc12", "FALSE"),
]

Cited source: PubChem BioAssay (NCI)
